Origin of values: patent US20190086302A1

experiment: Absorbance of chemical solution at 400 nm (OD400); format: physicochemical; conditions: Table 2; absorbance of chemical solution at 400 nm
quantity: 400 nm

INSERT INTO assay_data (compound, observed) VALUES
  ('CCN(CC)CCO', 0.06),
  ('Cc1cc(=O)n(-c2ccccc2)n1C', 0.048),
  ('C1CCC2=NCCCN2CC1 [#0594, 1,8-Diazabicyclo[5.4.0]-7-undecene]', 0.05),
  ('CCC(N)CCN (stereo not shown)', 0.048),
  ('c1cnccn1', 0.051),
  ('C[n+]1ccc(-c2cc[n+](C)cc2)cc1', 0.082),
  ('CCCCCCCCCCCCCC[N+](C)(C)Cc1ccccc1 [#0362, hydrate]', 0.053),
  ('NCCCNCCCN', 0.05),
  ('CCCCCCCCCCCC[N+](C)(C)C [#1021, Dodecyltrimethylammonium chloride]', 0.048),
  ('CCCCCCCCCCCC[N+](C)(C)CCCS(=O)(=O)O', 0.55),
  ('NCC1CCOCC1 [#0407, 4-Aminomethyltetrahydropyran]', 0.049),
  ('OCCN1CC1 [#1061, 1-(2-Hydroxyethyl)ethyleneimine]', 0.048),
  ('Cl.O=C(O)CCP(CCC(=O)O)CCC(=O)O', 0.047),
  ('[Cl-].c1ccc(C[P+](c2ccccc2)(c2ccccc2)c2ccccc2)cc1 [#0425, Benzyltriphenylphosphonium chloride]', 0.048),
  ('CN(CCCN)CCCN', 0.065),
  ('C[N+](C)(C)Cc1ccccc1.[OH-] [#03887, Benzyltrimethylammonium hydroxide]', 0.054);

---

experiment: pH of chemical solution; assay type: physicochemical; details: Table 3
Counter-ions that a name gives are not always drawn.
quantity: pH

INSERT INTO results (molecule, quantity, observed) VALUES
  ('CCCC[N+](CCCC)(CCCC)Cc1ccccc1.[Cl-] [#0307, Benzyltributylammonium chloride]', 'pH', 7.0),
  ('CN(C)CCSSCCN(C)C [#0295, dihydrochloride]', 'pH', 5.3),
  ('NCCCNCCCN', 'pH', 13.8),
  ('Cc1cccc(C)c1NC1=NCCCS1.Cl [#1612, Xylazine hydrochloride]', 'pH', 6.8),
  ('C1CCC2=[N+](CC1)CCCN2.O=C1N=C([O-])c2ccccc21 [#1181, Phtalimide DBU salt]', 'pH', 6.0),
  ('CN(C)CCOC(c1ccccc1)c1ccccc1.Cl [#0909, Diphanhydramine hydrochloride]', 'pH', 7.0),
  ('Cc1cc(=O)n(-c2ccccc2)n1C', 'pH', 7.5);

---

// reported pH per item
assay: pH of chemical solution; assay type: physicochemical; conditions: Table 2; chemical solution
quantity: pH

INSERT INTO assay_data (compound, observed) VALUES
  ('Cl.O=C(O)CCP(CCC(=O)O)CCC(=O)O', 2.3),
  ('c1cnccn1', 8.6),
  ('NCCCNCCCN', 13.8),
  ('Cc1cc(=O)n(-c2ccccc2)n1C', 7.5),
  ('C[n+]1ccc(-c2cc[n+](C)cc2)cc1', 6.0),
  ('CN(CCCN)CCCN', 13.0),
  ('CCCCCCCCCCCCCC[N+](C)(C)Cc1ccccc1 [#0362, hydrate]', 6.6),
  ('CC(CN)CCCN (stereo not shown)', 12.8),
  ('C1CCC2=NCCCN2CC1 [#0594, 1,8-Diazabicyclo[5.4.0]-7-undecene]', 13.5),
  ('[Cl-].c1ccc(C[P+](c2ccccc2)(c2ccccc2)c2ccccc2)cc1 [#0425, Benzyltriphenylphosphonium chloride]', 9.3);
